assay: Pharmacokinetic assessment in mice; type: in vivo, C57BL/6 mice; details: female, C57BL/6, mouse, in vivo, ip, 50 mg/kg
Endpoint: Tmax (min)

> print(dat)
                           structure.string  result.unit  observed.value
1  CC(=O)O[C@H]1C[C@@]2(C)[C@@H](C[C@@H](O)[C@H]3[C@@]4(C)CC[C@@H](O)[C@@H](C)[C@@H]4CC[C@@]32C)/C1=C(\CCC=C1CCCC1)C(=O)O          min            26.4
